System: MiaPaca-2 cells
Test: MiaPaca-2 Cell Proliferation Assay
Assay type: cell-based
Settings: Homo sapiens, MIA PaCa-2, MiaPaca-2 cells; Table 2; read-out: Inhibition of cell proliferation in MiaPaca-2 (IC50 class)
Method: Miapaca-2 cells (catalog #CRL-1420) are obtained from the American Type Culture Collect (ATTC, Manassas, VA). […] Plates are read on a Synergy2 or equivalent reader (Biotek, Winooski VT) using an excitation of 540 nm and an emission of 600 nm. Data is analyzed using Prism software (Graphpad, San Diego, CA) to calculate IC50 values.
pIC50: −log10 of the molar value.
Catalogue of pIC50 readings, one per entry.

Record excerpt, results attached:
Cc1ccc(NC(=O)c2cc(C(F)(F)F)cnn2)cc1-c1ccnc(-c2cnsc2)c1 6.30 to 7.00
Cc1ccc(NC(=O)c2cc(C(F)(F)F)cnn2)cc1-c1ccnc(-c2ccnc(NC(=O)C3CCC3)c2)c1 6.30 to 7.00
Cc1ccc(NC(=O)c2cc(P(C)(C)=O)cnn2)cc1-c1ccnc(-c2ccnc(NC(=O)C3CC3)c2)c1 5.00 to 6.00

Now turn to the next compound.
Qu. Quick check: pIC50 of `Cc1cc(-c2cc(NC(=O)c3cc(C(F)(F)F)cnn3)cnc2C)cc(-c2ccnc(NC(=O)C3CC3)c2)n1` ?
Ans. 5.00 to 6.00

====

system: Pa16c cells; assay: Pa16c Cell Proliferation Assay; assay type: cell-based; conditions: Table 2, read-out: Inhibition of cell proliferation in Pa16c (IC50 class)
Catalogue of IC50 readings, one per entry.

Cc1ccc(NC(=O)c2cncc(C(C)(C)C#N)c2)cc1-c1ccnc(-c2ccnc(NC(=O)C3CC3)c2)c1 1 to 10 µM

Qu. Form field - read-out: IC50; system: Pa16c cells; submitted item: `Cc1ccc(NC(=O)c2cc(C3CC3)cnn2)cc1-c1cc(OCCO)nc(-c2ccnc(NC(=O)C3CC3)c2)c1`
Ans. 0.1 to 0.5 µM

Qu. Form field - read-out: IC50; system: Pa16c cells; submitted item: `Cc1ccc(NC(=O)c2cc(C(C)(F)F)cnn2)cc1-c1ccnc(-c2cnn(C)c2)c1`
Ans. 0.5 to 1 µM

====

test system: MiaPaca-2 cells; assay: MiaPaca-2 Cell Proliferation Assay; type: cell-based; settings: Homo sapiens, MIA PaCa-2, MiaPaca-2 cells; Table 2; read-out: Inhibition of cell proliferation in MiaPaca-2 (IC50 class)
Catalogue of IC50 readings, one per entry.

Qu. Quick check: IC50 of COC(=O)Nc1cc(-c2cncc(-c3cc(NC(=O)c4ccc(C(F)(F)F)nc4)ccc3C)c2)ccn1 [Example 74] ?
Ans. 100 to 500 nM

====

test system: MiaPaca-2 cells; experiment: MiaPaca-2 Cell Proliferation Assay; format: cell-based; settings: Homo sapiens, MIA PaCa-2, MiaPaca-2 cells; Table 2; read-out: Inhibition of cell proliferation in MiaPaca-2 (IC50 class)
pIC50: −log10 of the molar value.
Catalogue of pIC50 readings, one per entry.

Record excerpt, results attached:
CCn1cc(-c2cc(-c3cc(NC(=O)c4cc(C(F)(F)F)cnn4)ccc3C)ccn2)cn1 6.30 to 7.00
Cc1ccc(NC(=O)c2cc(C)c(C)nn2)cc1-c1ccnc(-c2ccnc(NC(=O)C3CC3)c2)c1 5.00 to 6.00
COC(=O)Nc1cc(-c2cncc(-c3cc(NC(=O)c4ccc(C(F)(F)F)nc4)c(F)cc3C)c2)ccn1 > 7.00

Qu. Quick check: pIC50 of `Cc1ccc(NC(=O)c2cc(C(C)(F)F)cnn2)cc1-c1ccnc(-c2cscn2)c1` ?
Ans. 6.30 to 7.00

Qu. Quick check: pIC50 of `Cc1ccc(NC(=O)c2cc(C#N)cnn2)cc1-c1cc(N[C@H](C)CO)nc(-c2cn[nH]c2)c1` ?
Ans. > 7.00

Qu. Quick check: pIC50 of `Cc1cc(F)c(NC(=O)c2cc(C(F)(F)F)cnn2)cc1-c1ccnc(-c2ccnc(NC(=O)C3CC3)c2)c1` ?
Ans. 5.00 to 6.00

Qu. Quick check: pIC50 of `Cc1ccc(NC(=O)c2cc(Br)cnn2)cc1-c1ccnc(-c2ccnc(NC(=O)C3CC3)c2)c1` ?
Ans. 6.30 to 7.00
